Experiment: Serum levels of phorate, its metabolites and PAM in the poisoned patient (LC-MS)
Assay type: in vivo, human
Conditions: human, in vivo; patient, day 14
In this section, each of the molecules is paired with its reported concentration at 14 day.
metric: concentration at 14 day (ng/mL)

{"columns": ["molecule", "unit.descriptor", "recorded.number"],
 "data": [
  ["CCOP(=S)(OCC)SCS(=O)(=O)CC [phorate sulfone]", "ng/mL", 18.2],
  ["CCOP(=S)(OCC)SC[S+]([O-])CC (stereo not drawn) [phorate sulfoxide]", "ng/mL", 17.6],
  ["CCOP(=O)(OCC)SCS(=O)(=O)CC", "ng/mL", 29.4]
]}
